tested on: K4 kissing-loop RNA reporter; experiment: apparent KD of K4 kissing-loop reporter; higher = weaker reporter binding; details: Eterna round: R107; input ligand: arginine 13.2 mM;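 further: bound reporter read as fluorescence of individual clusters on recovered sequencing chips by microscopy, with normalized cluster intensities fitted with a binding model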
apparent KD of K4 kissing-loop reporter overview
measurementKind: apparent KD of K4 kissing-loop reporter (nM)

seqText: UUGAGCCUGACGUAAGUCAGGCUCUGCGAGCGAGGACCGGUACGGCCGCCACUCGGUGCAGUGAUGUUGCAUGGCCGCAAGGCCG [#2 Exclusion - Tryptophan A Attempt #15 (HarryS)]
measurementKind: apparent KD of K4 kissing-loop reporter
measValue: 257

seqText: CUACAUGCACAGGAGUGAUGUUUAUGGGCUCGAGGACCGGUACGGCCGCCACUCGUUAUGGCACGCAGUAGAUAUAGGCGAGGAA [theeternabot_sameState_KL_Trp_A_41]
measurementKind: apparent KD of K4 kissing-loop reporter
measValue: 381

seqText: GGCAGUGAUGUUGCCUAAGCAACGCAUGCGGAGGAUAUUCGUUCGGGAAGAAGGCCGCAGCGUUCUCUCGCGAGUGAUGUUCGCA [Same State FMN A GF 22]
measurementKind: apparent KD of K4 kissing-loop reporter
measValue: 160

seqText: GCCGUAGAUGGAAGGAGCGUGCCUUUCAGUUAUAGUGAUGUUAUAACCGAGGAACGGUUGGCACAGGUAGGUCGCCAUCUACGGC
measurementKind: apparent KD of K4 kissing-loop reporter
measValue: 90.2

seqText: UAUUUAGUGACGGCCGCCACUAUGGUGAUUUAUUUGUUUGAGUGAUGUUUUGAUGUUUGAUUUUGUAGGACCGGGUUAUGUGUUG [yyycmullin]
measurementKind: apparent KD of K4 kissing-loop reporter
measValue: 688

seqText: AAGCGUAAAAUGGCGGACAUACUGCUCCCACGAGGACCGGUACGGCCGCCACUCGAAUGCGGCAGUGAUGUUGCCGCCUUCGCGU [Zauslereed]
measurementKind: apparent KD of K4 kissing-loop reporter
measValue: 68.3

seqText: AUAUCGGUUGAGAGUGAUGUUCCUUGUGUUCGAGGACCGGUACGGCCGCCACUCGGGUAGAAAAUAAAAGAUGUGUUUGAUUUUU [BDazzled - #14 SS Tryptophan A]
measurementKind: apparent KD of K4 kissing-loop reporter
measValue: 91.5

seqText: GCGGGCCCUGGAGGAUAUGAGUCGAGUGAUGUUCGGCGGUCCAUGCCGAUGCGGCGUUAUGCCCUUUUAGAAGGCCAGGGUCCGC [#2 Exclusion - FMN B Attempt #8 (HarryS)]
measurementKind: apparent KD of K4 kissing-loop reporter
measValue: 234

seqText: CGCGCGGGUUUGAGAGGGUUUGCGCGAAGUGAGGAUAUUUAGGGAGAAAGAAGGCACUAUAAAAUAUAGUGAUGUUAUAUAAGGG [SSFMNA.I]
measurementKind: apparent KD of K4 kissing-loop reporter
measValue: 117

seqText: AAUAUAGUGAUGUUAUAUAAGAAGGAGUUACGAGGACCGGUACGGCCGCCACUCGAAACGAGUGAGGGCUUGGGAGAUUGGGCCC [SSTryptA.I]
measurementKind: apparent KD of K4 kissing-loop reporter
measValue: 346

seqText: CCUAUCUCAUACGAUACCAGUCAAAUAAAUUAUAACGAGUGAUGUUCGAAAUGCCAUCACGACCCUUGGCAGCGUAUGGGAUAGG [Ex Theophylline B K4 1]
measurementKind: apparent KD of K4 kissing-loop reporter
measValue: 123

seqText: AAGUGUUCUAGUGAUACCAGACAUUUCUAUUUUAUCUUUAUAGCUAAGUGAUGUUUAGCAGUCCCUUGGCAGCACUAUUUCACUA [JR_SSTheophyB_Sub017]
measurementKind: apparent KD of K4 kissing-loop reporter
measValue: 155

seqText: UUAUAUAAGGGAAGGAGCGCGUGGGCGCAGUGAUGUUGCGCCCGACAUCACUUCAACUUAACGCAGGUAGGUCGCCCUUUUAAUA [Arginine B (Excl) V4]
measurementKind: apparent KD of K4 kissing-loop reporter
measValue: 194

seqText: CAAAACGAGUGAUGUUCGGACAACAACGUUAAGGAUAUACUUCUCUGUAGAAGGUAACAGUAUUUAUAUUUCAUCAACGAAAAUG [theeternabot_exclusion_KL_FMN_A_12]
measurementKind: apparent KD of K4 kissing-loop reporter
measValue: 183

seqText: UGUGUACCGGGAAGGAGCGUGAAUGAGAAUGGAUAUAGUGAUGUUAUAUAUACGAACGAAUCGCAGGUAGGUCGCCCGGAUCCCU [SSArgB.Y]
measurementKind: apparent KD of K4 kissing-loop reporter
measValue: 408

seqText: AAGUGAUGUUGUAGUGAUGUUGUGAUGUUGCAGGAUAUAUAGUGAUGUAGAAGGGUAUGUGCAGUGUUGUUGUUUGAGUGUUCAU [dttyumullin]
measurementKind: apparent KD of K4 kissing-loop reporter
measValue: 41.8

seqText: AAGCGUGUGGCGGCCGCCACUAGUCUCCAGUGAUGUUGGAGAUAUCACGUAAGUGAUAUCCGACAUAGGACCGGGCCAUAUGGAA [Same State - Tryptophan B (Freestyle 22)]
measurementKind: apparent KD of K4 kissing-loop reporter
measValue: 299

seqText: UGAUAGGACAGAAGGAGCGGUAGUGAUGUUACCAAAAGGCUAAGGUGUCAAAAGACACCCUACCAGGUAGGUCGCUGUCCUAUCU
measurementKind: apparent KD of K4 kissing-loop reporter
measValue: 131

seqText: GCAGGAUAGCGCGGUGCAGUGAUGUUGCACCGAGGACCGGUACGGCCGCCACUCGCUUAGAUAUCGUGUGAUGGGUAUGUCUAGA [theeternabot_exclusion_KL_Trp_A_8]
measurementKind: apparent KD of K4 kissing-loop reporter
measValue: 110

seqText: UGAUACCAGACUGAUACCAGCCAGUGAUGUUGGCUAAGCCGAAGAGGUGUCAAAGACACCGGCCCUUGGCAGCAGUCUGGUAUCU [#06 K4 Theophylline B Exclusion]
measurementKind: apparent KD of K4 kissing-loop reporter
measValue: 117

seqText: UACUUUAAUUUAUAACUAUCUUUAUUUUGUCAGGAUAUCGUAUUGUCGAGAAGGGACUCUCUCAAGUGAUGUUUGAGAAAUCGUU [JR_SSFMNA_Sub024]
measurementKind: apparent KD of K4 kissing-loop reporter
measValue: 125

seqText: UGACUGGAUGGAAGGAGCGCUAAACUCCUAGUGAUGUUAGGGAAAUGAGACAAAGUCUCAAGGCAGGUAGGUCGCCAUCUAGUCU [FiskerMod 16 - Jieux - Same State - Arginine B]
measurementKind: apparent KD of K4 kissing-loop reporter
measValue: 78.6

seqText: UUCUUGAUGGAAACAUCGAGGAUUACUGAUACCAGUAUCGAUAGAUACCCUUGGCAGCAGAAUCAGUAAUCACGAGUGAUGUUCG [Ex Theophylline A K4 6]
measurementKind: apparent KD of K4 kissing-loop reporter
measValue: 497
